TARGET_SYSTEM: human Nav1.7 (Homo sapiens (Human), UniProt Q15858)
Sequence (Q15858 other isoform, or with tags, fused parts or gaps): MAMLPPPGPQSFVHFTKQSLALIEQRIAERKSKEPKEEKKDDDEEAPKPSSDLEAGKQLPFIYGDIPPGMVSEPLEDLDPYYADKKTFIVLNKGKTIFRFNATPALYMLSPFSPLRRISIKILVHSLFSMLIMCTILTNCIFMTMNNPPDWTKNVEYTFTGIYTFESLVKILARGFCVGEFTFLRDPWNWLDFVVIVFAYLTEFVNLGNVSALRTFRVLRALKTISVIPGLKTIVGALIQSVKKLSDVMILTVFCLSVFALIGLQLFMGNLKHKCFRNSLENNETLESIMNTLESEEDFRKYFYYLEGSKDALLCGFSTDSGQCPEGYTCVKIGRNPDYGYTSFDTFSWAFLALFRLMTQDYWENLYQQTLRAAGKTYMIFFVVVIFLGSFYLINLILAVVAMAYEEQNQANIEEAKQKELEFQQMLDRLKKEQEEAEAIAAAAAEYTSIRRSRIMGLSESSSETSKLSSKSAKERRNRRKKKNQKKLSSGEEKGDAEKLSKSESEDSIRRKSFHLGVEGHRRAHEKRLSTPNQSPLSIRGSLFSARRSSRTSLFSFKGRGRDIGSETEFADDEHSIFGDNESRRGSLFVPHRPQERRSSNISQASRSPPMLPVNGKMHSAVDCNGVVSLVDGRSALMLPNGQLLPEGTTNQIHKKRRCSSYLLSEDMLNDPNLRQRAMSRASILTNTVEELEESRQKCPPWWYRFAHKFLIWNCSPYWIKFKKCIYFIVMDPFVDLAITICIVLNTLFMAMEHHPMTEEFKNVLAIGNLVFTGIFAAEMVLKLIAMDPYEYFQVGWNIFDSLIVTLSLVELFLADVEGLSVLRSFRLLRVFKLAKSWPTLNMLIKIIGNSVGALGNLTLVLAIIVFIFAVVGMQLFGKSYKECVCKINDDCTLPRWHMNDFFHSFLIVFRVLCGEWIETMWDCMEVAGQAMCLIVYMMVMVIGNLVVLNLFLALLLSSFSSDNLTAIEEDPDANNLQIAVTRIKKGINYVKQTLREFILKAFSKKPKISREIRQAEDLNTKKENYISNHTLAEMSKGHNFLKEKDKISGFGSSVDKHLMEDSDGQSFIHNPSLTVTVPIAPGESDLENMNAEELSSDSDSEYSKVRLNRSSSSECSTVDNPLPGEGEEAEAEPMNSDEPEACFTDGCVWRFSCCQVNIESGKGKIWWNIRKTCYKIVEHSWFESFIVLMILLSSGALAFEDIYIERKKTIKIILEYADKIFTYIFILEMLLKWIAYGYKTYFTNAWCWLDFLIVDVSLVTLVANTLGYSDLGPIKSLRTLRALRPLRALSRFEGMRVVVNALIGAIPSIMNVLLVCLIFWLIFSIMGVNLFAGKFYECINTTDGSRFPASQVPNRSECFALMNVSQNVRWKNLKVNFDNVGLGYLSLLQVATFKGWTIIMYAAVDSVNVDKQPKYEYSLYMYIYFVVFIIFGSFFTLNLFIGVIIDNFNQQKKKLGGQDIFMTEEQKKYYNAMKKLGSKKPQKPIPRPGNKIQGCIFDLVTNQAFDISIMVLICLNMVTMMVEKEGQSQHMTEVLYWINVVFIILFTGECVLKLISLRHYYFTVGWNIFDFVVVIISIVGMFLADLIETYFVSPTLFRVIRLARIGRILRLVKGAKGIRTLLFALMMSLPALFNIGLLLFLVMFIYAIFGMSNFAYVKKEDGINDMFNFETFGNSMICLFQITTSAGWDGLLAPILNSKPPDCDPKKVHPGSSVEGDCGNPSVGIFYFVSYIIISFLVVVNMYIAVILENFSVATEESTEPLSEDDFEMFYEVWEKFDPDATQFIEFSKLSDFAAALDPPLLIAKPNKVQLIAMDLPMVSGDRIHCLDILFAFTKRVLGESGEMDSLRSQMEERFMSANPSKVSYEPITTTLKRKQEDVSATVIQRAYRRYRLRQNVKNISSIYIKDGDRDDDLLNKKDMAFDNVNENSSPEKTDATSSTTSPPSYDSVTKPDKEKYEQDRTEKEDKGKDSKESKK
ASSAY_METHOD_TEXT: FLIPR or FLIPR TETRA sodium dye assay for sodium channel blocking activity
Assay type: cell-based
MEASUREMENT_PARAMETERS: recombinant HEK293 cells expressing human Nav1.7
QUANTITY_NAME: IC50

INSERT INTO results (compound, endpoint_value) VALUES
  ('O=C(c1cccc(-c2ccc3[nH]ccc3c2)n1)N(c1ccc(C(F)(F)F)cc1)c1ccc(C(F)(F)F)cc1', '> 20 µM'),
  ('NC(=O)c1cccc(-c2ccc3c(ccn3Cc3ccncc3)c2)n1', '> 20 µM'),
  ('C[C@H](Nc1cc(C(N)=O)nc(-c2ccc3[nH]ccc3c2)n1)C(N)=O', '> 20 µM');
